Please respond with reported remaining activity at 0.1 µM for every item in the list.
tested.target: GSPT1 (Homo sapiens)
Construct: endogenous in cells; host or cells: MHH-CALL-4
Sequence (P15170 whole entry): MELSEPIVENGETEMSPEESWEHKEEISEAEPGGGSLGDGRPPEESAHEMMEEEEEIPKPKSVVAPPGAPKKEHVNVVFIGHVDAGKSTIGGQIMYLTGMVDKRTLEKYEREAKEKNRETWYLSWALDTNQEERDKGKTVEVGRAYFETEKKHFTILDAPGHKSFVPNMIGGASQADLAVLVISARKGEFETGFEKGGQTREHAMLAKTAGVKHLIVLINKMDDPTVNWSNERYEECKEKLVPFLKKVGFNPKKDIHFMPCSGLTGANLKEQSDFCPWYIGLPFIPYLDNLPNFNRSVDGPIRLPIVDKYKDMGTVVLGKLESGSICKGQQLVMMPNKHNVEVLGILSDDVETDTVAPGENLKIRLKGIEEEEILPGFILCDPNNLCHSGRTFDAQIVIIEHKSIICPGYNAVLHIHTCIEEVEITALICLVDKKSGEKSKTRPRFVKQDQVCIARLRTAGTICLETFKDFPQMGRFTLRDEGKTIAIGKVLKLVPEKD
procedure.text: Western blot assay, GSPT1 neosubstrate degradation
Type: cell-based
condition.set: MHHCALL4; 100 nM, 24 h; MHH-CALL-4 cells; vehicle control = 100%
Note: a bare number is incomplete; add the unit.

# molecule, reported.result
measured = [
    ("CCS(=O)(=O)N1CC(CC#N)(n2cc(-c3nc(Nc4ccc(C(=O)N5CCC6(CCN(c7ccc(C8CCC(=O)NC8=O)cc7)CC6)C5)cc4)nc4[nH]ccc34)cn2)C1 (stereo not drawn)", "72%"),
    ("CCS(=O)(=O)N1CC(CC#N)(n2cc(-c3nc(Nc4ccc(C(=O)NCCCCCCNc5ccc(C6CCC(=O)NC6=O)cc5)cc4)nc4[nH]ccc34)cn2)C1 (stereo not drawn)", "84%"),
    ("CCS(=O)(=O)N1CC(CC#N)(n2cc(-c3nc(Nc4ccc(C(=O)NCC5CCN(c6ccc7c(c6)C(=O)N(C6CCC(=O)NC6=O)C7=O)CC5)cc4)nc4[nH]ccc34)cn2)C1 (stereo not drawn)", "61%"),
]

Could you tell me remaining activity at 0.1 µM for each of these molecules? They are listed below.
1. CCCn1cc(-c2nc(Nc3ccc(C(=O)NCCN4CCN(c5ccc6c(c5)C(=O)N(C5CCC(=O)NC5=O)C6=O)CC4)cc3)nc3[nH]ccc23)cn1 (stereo not drawn)
2. N#CC[C@H](C1CCCC1)n1cc(-c2nc(Nc3ccc(C(=O)NCCCCOc4ccc(C5CCC(=O)NC5=O)cc4)cc3)nc3[nH]ccc23)cn1 (stereo partly drawn)
3. CCS(=O)(=O)N1CC(CC#N)(n2cc(-c3nc(Nc4ccc(C(=O)N5CCC6(CC5)CCN(c5ccc(C7CCC(=O)NC7=O)cc5)CC6)cc4)nc4[nH]ccc34)cn2)C1 (stereo not drawn)
4. CCS(=O)(=O)N1CC(CC#N)(n2cc(-c3nc(Nc4ccc(C(=O)NCCCCN5CCN(c6ccc(C7CCC(=O)NC7=O)cc6)CC5)cc4)nc4[nH]ccc34)cn2)C1 (stereo not drawn)
5. CCS(=O)(=O)N1CC(CC#N)(n2cc(-c3nc(Nc4ccc(C(=O)NCCC5CCN(c6ccc7c(c6)C(=O)N(C6CCC(=O)NC6=O)C7=O)CC5)cc4)nc4[nH]ccc34)cn2)C1 (stereo not drawn)
6. CCS(=O)(=O)N1CC(CC#N)(n2cc(-c3nc(Nc4ccc(C(=O)N5CC6(C5)CN(c5ccc(C7CCC(=O)NC7=O)cc5)C6)cc4)nc4[nH]ccc34)cn2)C1 (stereo not drawn)
7. CCS(=O)(=O)C1CC(CC#N)(n2cc(-c3nc(Nc4ccc(C(=O)N5CCC(c6ccc7c(c6)C(=O)N(C6CCC(=O)NC6=O)C7=O)CC5)cc4)nc4[nH]ccc34)cn2)C1 (stereo not drawn)
8. CCS(=O)(=O)N1CC(CC#N)(n2cc(-c3nc(Nc4ccc(C(=O)NCCCCOc5ccc(C6CCC(=O)N(C)C6=O)cc5)cc4)nc4[nH]ccc34)cn2)C1 (stereo not drawn)

1: 84%; 2: 94%; 3: 137%; 4: 129%; 5: 46%; 6: 102%; 7: 118%; 8: 86%

Could you tell me remaining activity at 0.1 µM for each of these molecules? They are listed below.
1. CCS(=O)(=O)C1CC(CC#N)(n2cc(-c3nc(Nc4ccc(C(=O)NC5CCN(c6ccc7c(c6)C(=O)N(C6CCC(=O)NC6=O)C7=O)CC5)cc4)nc4[nH]ccc34)cn2)C1 (stereo not drawn)
2. CCS(=O)(=O)N1CC(CC#N)(n2cc(-c3nc(Nc4ccc(C(=O)NCCCN5CC6CCC(C5)N6c5ccc(C6CCC(=O)NC6=O)cc5)cc4)nc4[nH]ccc34)cn2)C1 (stereo not drawn)
3. CCS(=O)(=O)C1CC(CC#N)(n2cc(-c3nc(Nc4ccc(C(=O)NC5CCN(c6cccc7c6C(=O)N(C6CCC(=O)NC6=O)C7=O)CC5)cc4)nc4[nH]ccc34)cn2)C1 (stereo not drawn)

["51%", "75%", "140%"]

Could you tell me remaining activity at 0.1 µM for each of these molecules? They are listed below.
1. N#CC[C@H](C1CCCC1)n1cc(-c2nc(Nc3ccc(C(=O)NCCN4CCN(c5ccc6c(c5)C(=O)N(C5CCC(=O)NC5=O)C6=O)CC4)cc3)nc3[nH]ccc23)cn1 (stereo partly drawn)
2. CCS(=O)(=O)N1CC(CC#N)(n2cc(-c3nc(Nc4ccc(C(=O)NCCCN5CCC(c6ccc7c(c6)CN(C6CCC(=O)NC6=O)C7=O)CC5)cc4)nc4[nH]ccc34)cn2)C1 (stereo not drawn)
3. CCS(=O)(=O)N1CC(CC#N)(n2cc(-c3nc(Nc4ccc(C(=O)NCCN5CCN(c6cccc(C7CCC(=O)NC7=O)c6)CC5)cc4)nc4[nH]ccc34)cn2)C1 (stereo not drawn)

1. 103%
2. 127%
3. 88%

Attribution: patent US20240124465A1
